Target: T1, 4H3185-bA
T1 chain: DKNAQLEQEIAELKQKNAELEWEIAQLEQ
Assay: two-hybrid library CCNG1;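 also: natural log of median RNA to DNA barcode read ratio; higher means stronger binding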
property-measured: interaction score

Below are worked cases with known answers.
{"binder": "DENAQLKQKIAELEQKIAELEWENAQLKQ [4H1828-bA]", "interaction score": -0.351}
{"binder": "DENAQLEQENAELKQKIAELKWEIAQLEQ [4H1257-bA]", "interaction score": -1.37}

A: DKIAQLKQEIAELEQKNAELKWEIAQLKQ [4H2618-bA]
B: DKIAQLKQEIAELKQKIAELKWENAQLEQ [4H2667-bA]
C: DKIAQLKQEIAELEQEIAELKWKNAQLKQ [4H2576-bA]
D: DKIAQLKQENAELEQKIAELKWEIAQLEQ [4H2729-bA]
Task: Write the entries in order, lowest recorded interaction score first. # the answer lists labels in the order requested
Result: C, B, D, A
(C: -1.6, B: -0.669, D: -0.331, A: 0.858)
